Molecular target: T1, GRP78 (soluble / recombinant protein) (UniProt P11021 19-654)
T1 construct: also called GRP78-HRP; HRP-labeled GRP78
T1 sequence (P11021 19-654 limits assumed): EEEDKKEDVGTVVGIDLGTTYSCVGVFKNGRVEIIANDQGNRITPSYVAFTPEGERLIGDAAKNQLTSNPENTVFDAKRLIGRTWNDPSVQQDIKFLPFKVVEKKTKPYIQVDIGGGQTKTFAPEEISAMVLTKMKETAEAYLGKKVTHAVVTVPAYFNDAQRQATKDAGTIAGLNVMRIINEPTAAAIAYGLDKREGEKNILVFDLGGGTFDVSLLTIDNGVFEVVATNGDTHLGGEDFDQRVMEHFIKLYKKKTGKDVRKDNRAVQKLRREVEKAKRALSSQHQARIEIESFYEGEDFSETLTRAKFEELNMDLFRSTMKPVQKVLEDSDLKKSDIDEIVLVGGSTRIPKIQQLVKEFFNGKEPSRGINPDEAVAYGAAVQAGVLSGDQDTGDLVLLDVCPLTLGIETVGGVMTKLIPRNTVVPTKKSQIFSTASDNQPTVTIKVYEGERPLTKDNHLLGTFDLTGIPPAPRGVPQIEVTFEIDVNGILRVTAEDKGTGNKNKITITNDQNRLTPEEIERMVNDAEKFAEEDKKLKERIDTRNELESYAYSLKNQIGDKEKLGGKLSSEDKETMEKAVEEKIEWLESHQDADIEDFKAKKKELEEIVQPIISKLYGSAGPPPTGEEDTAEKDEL
Assay: method not stated
observable: Kd (pM)

>>> observed("K5 (5th kringle domain of human plasminogen) (other, also called kringle 5) SEEDCMFGNGKGYRGKRATTVTGTPCQDWAAQEPHRHSIFTPETNPRAGLEKNYCRNPDGDVGGPWCYTTNPRKLYDYCDVPQCAAPKS")
600
